tested on: RSV K394R; type: cell-based, respiratory syncytial virus (RSV); conditions: K394R; HEp-2, MOI 0.2, 3 days, FFA; read-out: EC50
measured.quantity: EC50 (µM)
The reply should be a number in µM, with the unit left off.

Task: Return EC50 for the following compound: `NC(=O)N1CCC(CC(=O)N2CCC([C@H]3c4ncc(Br)cc4CCc4cc(Cl)cc(Br)c43)CC2)CC1`
Output: 5.13

---

test system: RSV L141F; assay type: cell-based, respiratory syncytial virus (RSV); conditions: HEp-2, MOI 0.2, 3 days, FFA
measured.quantity: pEC50
Reminder that pEC50 means the negative base-10 logarithm of the concentration expressed in mol/L.

Task: Give RSV L141F pEC50 for the following compound: `NC(=O)N1CCC(CC(=O)N2CCC([C@H]3c4ncc(Br)cc4CCc4cc(Cl)cc(Br)c43)CC2)CC1`
Output: 7.10

---

system: RSV T400A; assay type: cell-based, respiratory syncytial virus (RSV); settings: T400A; HEp-2, MOI 0.2, 3 days, FFA; read-out: EC50
measured.quantity: pEC50
Reminder that pEC50 means the negative base-10 logarithm of the concentration expressed in mol/L.

Task: Give RSV T400A pEC50 for the following molecule: NC(=O)N1CCC(CC(=O)N2CCC([C@H]3c4ncc(Br)cc4CCc4cc(Cl)cc(Br)c43)CC2)CC1 [Lonafarnib]
Output: 5.82

---

system: RSV T400A; format: cell-based, respiratory syncytial virus (RSV); details: fold change in the EC50 relative to that of wild-type RSV
measured.quantity: Fold resistance (RSV T400A)
// no unit string in output, number only

Task: Give RSV T400A Fold resistance (RSV T400A) for the following compound: Cc1cn2nc([C@@H]3CCCCN3C(=O)c3cc(Cl)ccc3NS(C)(=O)=O)cc2nc1N1CC[C@H](N)C1 [GS-5806]
Output: 250.1

Task: Give RSV T400A Fold resistance (RSV T400A) for the following compound: NCc1ccc2c(c1)nc(CN1C(=O)C3(CC3)c3ccc(F)cc31)n2CCCC(F)(F)F [RV521]
Output: 173.6

---

tested on: RSV A2 P18 (Control); test: Antiviral activity against passaged virus in HEp-2 cells (FFA); assay type: cell-based, respiratory syncytial virus (RSV); conditions: human respiratory syncytial virus, HEp-2, Lineage 3; HEp-2, MOI 0.2, FFA
measured.quantity: EC50 (µM)
The reply should be a number in µM, with the unit left off.

Task: Return EC50 for the following compound: `NC(=O)N1CCC(CC(=O)N2CCC([C@H]3c4ncc(Br)cc4CCc4cc(Cl)cc(Br)c43)CC2)CC1`
Output: 0.04
